- Species on record: Homo sapiens
- Procedure Summary: Selectivity index, ratio of Ki for human recombinant 5-HT1A receptor to Ki for human recombinant 5-HT7 receptor
Label True when Ratio Ki >= 7; otherwise False.

Molecule: COc1cc2c(cc1OC(C)C)C[C@H]1c3c(cc(OC)c(OC)c3-2)CCN1C
Label: True
//
Molecule: COc1cc2c(cc1OCCF)C[C@H]1c3c(cc(OC)c(OC)c3-2)CCN1C
Label: True
//
Molecule: CCCC(C)Oc1cc2c(cc1OC)-c1c(OC)c(OC)cc3c1[C@H](C2)N(C)CC3 (stereo not given in full)
Label: False
//
Molecule: COc1cc2c(cc1OCc1ccccc1)C[C@H]1c3c(cc(OC)c(OC)c3-2)CCN1C
Label: False

FYI, the data here is from ChEMBL document CHEMBL3580564.
